Hey, just so you know, these numbers are from the supplement of paper PMC7877785.

Experiment: self-splicing fitness, log relative to wild type (ln ratio); higher = more splicing; Tetrahymena group I intron in knt gene, E. coli kanamycin selection, DiMSum; sequences stand for … in CUCUCU…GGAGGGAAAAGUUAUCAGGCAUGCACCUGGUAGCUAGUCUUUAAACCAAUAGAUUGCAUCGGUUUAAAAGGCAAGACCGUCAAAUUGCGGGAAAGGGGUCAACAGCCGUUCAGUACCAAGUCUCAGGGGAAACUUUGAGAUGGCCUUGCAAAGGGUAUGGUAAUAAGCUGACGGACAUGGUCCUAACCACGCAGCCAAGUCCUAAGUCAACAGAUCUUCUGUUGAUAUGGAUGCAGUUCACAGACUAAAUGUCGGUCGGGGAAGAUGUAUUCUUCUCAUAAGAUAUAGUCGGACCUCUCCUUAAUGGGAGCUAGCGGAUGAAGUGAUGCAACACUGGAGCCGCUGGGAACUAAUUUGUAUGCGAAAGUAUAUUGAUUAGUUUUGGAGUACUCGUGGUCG;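 further: selection with 25 µg/mL kanamycin versus none on LB agar overnight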
Conditions: 30 °C
Response field class: enum, chosen by comparing self-splicing fitness (ln) against b0: < -3; b1: ≥ -3 and < -2; b2: ≥ -2

INSERT INTO assay_data (residues, cat) VALUES
  ('UCAAAGCAAUAUUACGGUGA', 'b2'),
  ('GAAGAGCAAUAUUACGCAGA', 'b1'),
  ('UCUAAGCAAUAUUACGUCAA', 'b1'),
  ('AAAUAGCAAUAUUACGGACG', 'b2'),
  ('GUCCAGCAAUAUUACGACCC', 'b2'),
  ('AACCAGCAAUAUUACGGAAU', 'b1'),
  ('CAUUAGCAAUAUUACGGGGA', 'b1'),
  ('UAACAGCAAUAUUACGCGCC', 'b2'),
  ('AACCAGCAAUAUUACGUGAU', 'b2'),
  ('AUGUAGCAAUAUUACGUUAG', 'b2'),
  ('UCUUAGCAAUAUUACGUCAG', 'b2'),
  ('GUUUAGCAAUAUUACGCUAG', 'b1'),
  ('CAUGAGCAAUAUUACGUUAA', 'b0'),
  ('UCAGAGCAAUAUUACGUCUG', 'b1'),
  ('UAAUAGCAAUAUUACGCCGA', 'b2'),
  ('UCCUAGCAAUAUUACGUGGG', 'b0'),
  ('GAGCAGCAAUAUUACGGAGC', 'b0'),
  ('ACUAAGCAAUAUUACGCGGG', 'b1'),
  ('AAAGAGCAAUAUUACGUUGA', 'b1'),
  ('UCCGAGCAAUAUUACGAAGG', 'b1'),
  ('CGCAAGCAAUAUUACGAGUC', 'b0'),
  ('AUGCAGCAAUAUUACGUUCC', 'b2'),
  ('UCUUAGCAAUAUUACGUAGC', 'b0'),
  ('UGUUAGCAAUAUUACGCGCU', 'b2'),
  ('GUUUAGCAAUAUUACGCGUG', 'b2'),
  ('ACUAAGCAAUAUUACGCACA', 'b2'),
  ('CGAUAGCAAUAUUACGUCGG', 'b2'),
  ('UCGUAGCAAUAUUACGUCCG', 'b2'),
  ('GUGCAGCAAUAUUACGGGAA', 'b0'),
  ('GAUGAGCAAUAUUACGAAUU', 'b0'),
  ('UGCAAGCAAUAUUACGUAGU', 'b0'),
  ('CGUAAGCAAUAUUACGCUAU', 'b0'),
  ('AAUCAGCAAUAUUACGGUCA', 'b2'),
  ('AUGUAGCAAUAUUACGGAUC', 'b2'),
  ('CCUUAGCAAUAUUACGGUAU', 'b0'),
  ('CUCAAGCAAUAUUACGAACC', 'b1'),
  ('GCGCAGCAAUAUUACGUGCG', 'b0'),
  ('ACGAAGCAAUAUUACGGUUA', 'b2'),
  ('GGCUAGCAAUAUUACGUUAG', 'b0'),
  ('AGUGAGCAAUAUUACGUGGG', 'b0'),
  ('GUCGAGCAAUAUUACGGAAG', 'b0'),
  ('CGCGAGCAAUAUUACGCGGG', 'b0'),
  ('GUUCAGCAAUAUUACGGUUA', 'b2'),
  ('GGCUAGCAAUAUUACGGACC', 'b2'),
  ('CAAGAGCAAUAUUACGGCCA', 'b1'),
  ('AAGAAGCAAUAUUACGGGUA', 'b1'),
  ('GAAGAGCAAUAUUACGUCCU', 'b1'),
  ('GAGCAGCAAUAUUACGAUUA', 'b1'),
  ('GUAGAGCAAUAUUACGGGGA', 'b0'),
  ('AGCCAGCAAUAUUACGUGGU', 'b0'),
  ('AAUUAGCAAUAUUACGACGG', 'b2'),
  ('AAAAAGCAAUAUUACGCCUG', 'b2'),
  ('GCUUAGCAAUAUUACGAACG', 'b2'),
  ('GAAGAGCAAUAUUACGACGC', 'b2'),
  ('UUAGAGCAAUAUUACGAUCU', 'b1'),
  ('AAGGAGCAAUAUUACGAGCC', 'b2'),
  ('AGAGAGCAAUAUUACGGCGU', 'b1'),
  ('CGUGAGCAAUAUUACGGUGC', 'b0'),
  ('CAGGAGCAAUAUUACGUCUA', 'b2'),
  ('UAUCAGCAAUAUUACGUAAC', 'b2'),
  ('CGUAAGCAAUAUUACGGGUU', 'b0'),
  ('ACGGAGCAAUAUUACGAUAC', 'b1'),
  ('UUUAAGCAAUAUUACGAAGA', 'b1');

----------
Assay: self-splicing fitness, log relative to wild type (ln ratio); higher = more splicing; Tetrahymena group I intron in knt gene, E. coli kanamycin selection, DiMSum; sequences stand for … in CUCUCU…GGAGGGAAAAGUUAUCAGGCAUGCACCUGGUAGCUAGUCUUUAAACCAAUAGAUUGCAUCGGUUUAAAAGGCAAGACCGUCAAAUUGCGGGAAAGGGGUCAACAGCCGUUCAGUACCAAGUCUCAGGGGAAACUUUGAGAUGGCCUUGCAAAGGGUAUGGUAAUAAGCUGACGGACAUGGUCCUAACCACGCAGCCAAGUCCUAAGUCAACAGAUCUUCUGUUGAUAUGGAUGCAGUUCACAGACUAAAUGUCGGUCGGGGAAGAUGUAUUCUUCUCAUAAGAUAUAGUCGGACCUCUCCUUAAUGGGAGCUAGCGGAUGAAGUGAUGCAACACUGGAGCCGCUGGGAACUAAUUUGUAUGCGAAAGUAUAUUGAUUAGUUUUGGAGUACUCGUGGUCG
Details: 30 °C
Response field class: enum, chosen by comparing self-splicing fitness (ln) against 1: < -3; 2: ≥ -3 and < -2; 3: ≥ -2

INSERT INTO measurements (residues, cat) VALUES
  ('CCAAAGCAAUAUUACGAUGG', 1),
  ('CACAAGCAAUAUUACGUGAC', 1),
  ('UCCAAGCAAUAUUACGGGAC', 1),
  ('GGUCAGCAAUAUUACGGGUC', 3),
  ('GCAGAGCAAUAUUACGGUUC', 2),
  ('CGUAAGCAAUAUUACGCGAC', 1),
  ('UAAUAGCAAUAUUACGACUU', 3),
  ('UUUCAGCAAUAUUACGAUAA', 3),
  ('UACGAGCAAUAUUACGGGUC', 1),
  ('AAACAGCAAUAUUACGAGGU', 1),
  ('GUCUAGCAAUAUUACGUGCG', 3),
  ('GGGCAGCAAUAUUACGGUCG', 3),
  ('CCAUAGCAAUAUUACGCCGC', 3),
  ('GCUAAGCAAUAUUACGGAAU', 3),
  ('GAGCAGCAAUAUUACGCAGU', 1),
  ('CGCUAGCAAUAUUACGCUGG', 2),
  ('UGACAGCAAUAUUACGUUAA', 3),
  ('ACCCAGCAAUAUUACGUUUU', 3),
  ('CUAGAGCAAUAUUACGAGAC', 2),
  ('UAUGAGCAAUAUUACGCUGG', 2),
  ('AAGAAGCAAUAUUACGGAGC', 1),
  ('AUUCAGCAAUAUUACGCGAC', 2),
  ('UCGUAGCAAUAUUACGUUAG', 1),
  ('GCUUAGCAAUAUUACGGAGG', 3),
  ('GGCAAGCAAUAUUACGGGCA', 3),
  ('GUCCAGCAAUAUUACGUAGA', 3),
  ('GGCGAGCAAUAUUACGGUCA', 3),
  ('CACGAGCAAUAUUACGCAAG', 2),
  ('CAUAAGCAAUAUUACGACUU', 1),
  ('GGCAAGCAAUAUUACGCCAA', 3),
  ('CCCAAGCAAUAUUACGUAGC', 2),
  ('CGGCAGCAAUAUUACGGUAC', 1);
